The measured values listed here are drawn from patent US20230338349A1.

- experimentalDetails: Single ascending dose study in healthy subjects, pharmacokinetics of compound of Formula I
- Format: in vivo, human
- measurementContext: human, plasma, mean, single oral dose 16 mg, 0.5 h
- Protocol: A Phase 1, single-center, subject- and investigator-blind, single-ascending dose, placebo-controlled, crossover, randomized study is performed to evaluate safety, tolerability, and pharmacokinetics (PK) of the compound of Formula I in healthy subjects. The study is conducted in 2 alternating cohorts (cohorts 1 and 2) in up to 3 study periods across 6 dose levels. […]
valueKind: concentration at 0.5 h (ng/mL)
Answer in ng/mL, number only, no unit symbol.

// query concentration at 0.5 h value for entry CC(=O)Nc1nc(F)c(CN2CC[C@H](OCc3noc(C)n3)C[C@@H]2C)s1
59.7

====

- experimentalDetails: Single ascending dose study in healthy subjects, pharmacokinetics of compound of Formula I
- Type: in vivo, human
- measurementContext: human, plasma, single oral dose 0.6 mg, median, read-out: tmax
valueKind: Tmax (h)
Give your result in h as a bare value.

Request the reported Tmax associated with CC(=O)Nc1nc(F)c(CN2CC[C@H](OCc3noc(C)n3)C[C@@H]2C)s1 [compound of Formula I]
1

====

- experimentalDetails: Single ascending dose study in healthy subjects, pharmacokinetics of compound of Formula I
- Type: in vivo, human
- measurementContext: human, plasma, mean, single oral dose 16 mg, 1 h
valueKind: concentration at 1 h (ng/mL)
Enter your answer as a number in ng/mL; do not include the unit.

Recorded concentration at 1 h for CC(=O)Nc1nc(F)c(CN2CC[C@H](OCc3noc(C)n3)C[C@@H]2C)s1 , please?
150

====

- experimentalDetails: Single ascending dose study in healthy subjects, pharmacokinetics of compound of Formula I
- Type: in vivo, human
- measurementContext: human, plasma, mean, single oral dose 5 mg, 1.5 h
valueKind: concentration at 1.5 h

# lookup: concentration at 1.5 h of CC(=O)Nc1nc(F)c(CN2CC[C@H](OCc3noc(C)n3)C[C@@H]2C)s1
55.3 ng/mL

====

- experimentalDetails: Single ascending dose study in healthy subjects, pharmacokinetics of compound of Formula I
- Assay type: in vivo, human
- measurementContext: human, plasma, mean, single oral dose 2 mg, 0.5 h
valueKind: concentration at 0.5 h (µg/mL)
// units = µg/mL; emit number, no label

Can you share its concentration at 0.5 h? I mean this compound: CC(=O)Nc1nc(F)c(CN2CC[C@H](OCc3noc(C)n3)C[C@@H]2C)s1 [compound of Formula I]
0.0162

====

- experimentalDetails: Single ascending dose study in healthy subjects, pharmacokinetics of compound of Formula I
- Assay type: in vivo, human
- measurementContext: human, plasma, mean, single oral dose 10 mg, 24 h
- Description: A Phase 1, single-center, subject- and investigator-blind, single-ascending dose, placebo-controlled, crossover, randomized study is performed to evaluate safety, tolerability, and pharmacokinetics (PK) of the compound of Formula I in healthy subjects. The study is conducted in 2 alternating cohorts (cohorts 1 and 2) in up to 3 study periods across 6 dose levels. […]
valueKind: concentration at 24 h (ng/mL)
Express it in ng/mL; write the number only.

Fill in the blank: the reported concentration at 24 h of CC(=O)Nc1nc(F)c(CN2CC[C@H](OCc3noc(C)n3)C[C@@H]2C)s1 is ____.
11

====

- experimentalDetails: Plasma concentration of compound of Formula I in the PET occupancy study
- Type: in vivo
- measurementContext: human, single oral dose 0.25 mg, approx. 6 h, healthy subjects
valueKind: concentration at 6 h (ng/mL)
Dear colleague, please return just the value in ng/mL, with no unit written.

Fill blank: measured concentration at 6 h of the compound CC(=O)Nc1nc(F)c(CN2CC[C@H](OCc3noc(C)n3)C[C@@H]2C)s1 [compound of Formula I] is ____.
0.357

====

- experimentalDetails: Single ascending dose study in healthy subjects, pharmacokinetics of compound of Formula I
- Format: in vivo, human
- measurementContext: human, plasma, mean, single oral dose 5 mg, 2 h
- Experimental: A Phase 1, single-center, subject- and investigator-blind, single-ascending dose, placebo-controlled, crossover, randomized study is performed to evaluate safety, tolerability, and pharmacokinetics (PK) of the compound of Formula I in healthy subjects. The study is conducted in 2 alternating cohorts (cohorts 1 and 2) in up to 3 study periods across 6 dose levels. […]
valueKind: concentration at 2 h (ng/mL)
The reply should contain only the number, in ng/mL.

Consider the compound CC(=O)Nc1nc(F)c(CN2CC[C@H](OCc3noc(C)n3)C[C@@H]2C)s1 and give its measured concentration at 2 h.
50.3

====

- experimentalDetails: Plasma concentration of compound of Formula I in the PET occupancy study
- Format: in vivo
- measurementContext: human, single oral dose 1 mg, approx. 6 h, healthy subjects
valueKind: concentration at 6 h (ng/mL)
Express the result in ng/mL but write the number alone.

Entry CC(=O)Nc1nc(F)c(CN2CC[C@H](OCc3noc(C)n3)C[C@@H]2C)s1 [compound of Formula I] : reported concentration at 6 h = ?
3.08

====

- experimentalDetails: Single ascending dose study in healthy subjects, pharmacokinetics of compound of Formula I
- Format: in vivo, human
- measurementContext: human, plasma, mean, single oral dose 10 mg, 6 h
valueKind: concentration at 6 h (ng/mL)
Answer format: numeric, ng/mL implied, no suffix.

Name the recorded concentration at 6 h for CC(=O)Nc1nc(F)c(CN2CC[C@H](OCc3noc(C)n3)C[C@@H]2C)s1 .
72.3

====

- experimentalDetails: Single ascending dose study in healthy subjects, pharmacokinetics of compound of Formula I
- Type: in vivo, human
- measurementContext: human, plasma, mean, single oral dose 0.6 mg, 1 h
valueKind: concentration at 1 h (ng/mL)
Number only, in ng/mL; omit the unit.

Returns the measured concentration at 1 h for the input compound. Input: CC(=O)Nc1nc(F)c(CN2CC[C@H](OCc3noc(C)n3)C[C@@H]2C)s1
6.25

====

- experimentalDetails: Plasma concentration of compound of Formula I in the PET occupancy study
- Assay type: in vivo
- measurementContext: human, single oral dose 1 mg, approx. 12 h, healthy subjects
valueKind: concentration at 12 h (ng/mL)
Numbers only; they are read as ng/mL.

Recorded concentration at 12 h of CC(=O)Nc1nc(F)c(CN2CC[C@H](OCc3noc(C)n3)C[C@@H]2C)s1 , please.
1.42

====

- experimentalDetails: Plasma concentration of compound of Formula I in the PET occupancy study
- Type: in vivo
- measurementContext: human, single oral dose 0.25 mg, approx. 0.5 h, healthy subjects
valueKind: concentration at 0.5 h (ng/mL)
Your answer should be a plain number; it is taken to be in ng/mL.

For the compound shown here, CC(=O)Nc1nc(F)c(CN2CC[C@H](OCc3noc(C)n3)C[C@@H]2C)s1 , give the reported concentration at 0.5 h.
0.934

====

- experimentalDetails: Single ascending dose study in healthy subjects, pharmacokinetics of compound of Formula I
- Format: in vivo, human
- measurementContext: human, plasma, mean, single oral dose 16 mg, 1.5 h
valueKind: concentration at 1.5 h
Could you kindly put the unit after your number?

Entry under review: CC(=O)Nc1nc(F)c(CN2CC[C@H](OCc3noc(C)n3)C[C@@H]2C)s1 . Reported concentration at 1.5 h?
183 ng/mL

====

- experimentalDetails: Single ascending dose study in healthy subjects, pharmacokinetics of compound of Formula I
- Format: in vivo, human
- measurementContext: human, plasma, single oral dose 2 mg, median, read-out: tmax
valueKind: Tmax (h)
Expressed in h, but write only the number.

// lookup Tmax for CC(=O)Nc1nc(F)c(CN2CC[C@H](OCc3noc(C)n3)C[C@@H]2C)s1 [compound of Formula I]
1.25

====

- experimentalDetails: Single ascending dose study in healthy subjects, pharmacokinetics of compound of Formula I
- Assay type: in vivo, human
- measurementContext: human, plasma, single oral dose 16 mg, median, read-out: tmax
- Protocol: A Phase 1, single-center, subject- and investigator-blind, single-ascending dose, placebo-controlled, crossover, randomized study is performed to evaluate safety, tolerability, and pharmacokinetics (PK) of the compound of Formula I in healthy subjects. The study is conducted in 2 alternating cohorts (cohorts 1 and 2) in up to 3 study periods across 6 dose levels. […]
valueKind: Tmax (h)
Supply the numeric figure in h, leaving out any unit text.

Would you kindly share the measured Tmax for CC(=O)Nc1nc(F)c(CN2CC[C@H](OCc3noc(C)n3)C[C@@H]2C)s1 ?
1.98

====

- experimentalDetails: Single ascending dose study in healthy subjects, pharmacokinetics of compound of Formula I
- Format: in vivo, human
- measurementContext: human, plasma, mean, single oral dose 2 mg, 24 h
valueKind: concentration at 24 h (ng/mL)
Respond with the bare value in ng/mL.

Fill in: concentration at 24 h of CC(=O)Nc1nc(F)c(CN2CC[C@H](OCc3noc(C)n3)C[C@@H]2C)s1 is ___
1.34

====

- experimentalDetails: Plasma concentration of compound of Formula I in the PET occupancy study
- Type: in vivo
- measurementContext: human, single oral dose 1 mg, approx. 4 h, healthy subjects
valueKind: concentration at 4 h

Consider the compound CC(=O)Nc1nc(F)c(CN2CC[C@H](OCc3noc(C)n3)C[C@@H]2C)s1 [compound of Formula I] and give its measured concentration at 4 h.
4.28 ng/mL
